- target under test: T1, hK1 (human tissue kallikrein 1), recombinant (human, UniProt P06870 25-262)
- T1 construct: Expressed in P. pastoris from KLK1 cDNA and purified; enzymatically active; also called KLK1; Recombinant (Pichia) Kallikrein
- assay method text: SPR
measured metric: log10(Kd) (log10 of the value in nM)
// do not treat as linear: log10 of Kd, unit nM

Worked cases, answers included:
INSERT INTO results (binder, recorded_measurement) VALUES
  ('M0103-H07 (Fab, V domains shown) VH: EVQLLESGGGLVQPGGSLRLSCAASGFTFSHYGMYWVRQAPGKGLEWVSSIYPSGGWTNYADSVKGRFTISRDNSKNTLYLQMNSLRAEDTAVYYCARRGSWGAFDIWGQGTMVTVSS VL: DIQMTQSPSSLSASVGDRVAITCRASQSIDTYLNWYQQKPGKAPKLLIYAASKLEDGVPSRFSGSGTGTDFTLTIRSLQPEDFATYYCQPYNTYPITFGQGTRLEIKR', 1.93),
  ('M0099-A09 (Fab, V domains shown) VH: EVQLLESGGGLVQPGGSLRLSCAASGFTFSRYAMFWVRQAPGKGLEWVSSISPSGGKTRYADSVKGRFTISRDNSKNTLYLQMNSLRAEDTAVYYCARGGGTALDYWGQGTLVTVSS VL: DIQMTQSPGTLSLSPGERATLSCRASQSVYSSYLAWYQQKPGQAPRLLIYAASNRAIGIPDRFSGSGSGTDFTLTISSMQPEDFATYYCQQSYSTPRFGQGTKLEIKR', 1.03),
  ('M0106-C06 (Fab, V domains shown) VH: EVQLLESGGGLVQPGGSLRLSCAASGFTFSHYTMQWVRQAPGKGLEWVSSIYPSGGATKYADSVKGRFTISRDNSKNTLYLQMNSLRAEDTAMYYCARSGYYYGLDVWGQGTTVTVSS VL: DIQMTQSPATLSASVGDRVTITCRASQSVSRWLAWYQQKPGKAPKLLIYKASTLESGVPSRFSGSGSGTEFTLTISSLQPDDFATYYCQQYGAFGQGTKVEIRR', 1.35),
  ('M0114-E02 (Fab, V domains shown) VH: EVQLLESGGGLVQPGGSLRLSCAASGFTFSHYKMMWVRQAPGKGLEWVSYIYPSGGWTGYADSVKGRFTISRDNSKNTLYLQMNSLRAEDTAVYYCARVGPWDAFDIWGQGTMVTVSS VL: DIQMTQSPATLSLSPGERATLSCRASQSVGGYLAWYQQKPGQAPRLLIYDASKRATGIPARFSGSGSGTDFTLTISSLEPEDFAVYYCQQRSKWPPYTFGQGTKLEIKR', 1.37);

QUERY: Recorded log10(Kd) of M0107-F11 (Fab, V domains shown) VH: EVQLLESGGGLVQPGGSLRLSCAASGFTFSHYQMHWVRQAPGKGLEWVSSIRPSGGRTAYADSVKGRFTISRDNSKNTLYLQMNSLRAEDTAVYYCARVGVWYGMDVWGQGTTVTVSS VL: DIQMTQSPGTLSLSPGERATLSCRASQSVSGSYLAWYQQKPGQAPSLLIYGAYSRATGIPDRFSGSGSGTDFTLTISRLEPEDFAVYYCQHYGSSPRTFGGGTKVEIKR , please.
RESULT: 0.99

QUERY: Now the binder M0118-E07 (Fab, V domains shown) VH: EVQLLESGGGLVQPGGSLRLSCAASGFTFSHYPMDWVRQAPGKGLEWVSRIYPSGGATKYADSVKGRFTISRDNSKNTLYLQMNSLRAEDTATYYCARGGGAFDIWGQGTMVTVSS VL: DIQMTQSPSSLSASVGDRVTITCRASQGISNYLAWYQQKPGKVPKLLIYAASTLQSGVPSRFSGSGSGTDFTLTISSLQPEDVATYYCQKYNSAPLTFGGGTKVEIKR
RESULT: 1.50

QUERY: Now the binder M0102-C02 (Fab, V domains shown) VH: EVQLLESGGGLVQPGGSLRLSCAASGFTFSHYLMHWVRQAPGKGLEWVSSIYPSGGKTQYADSVKGRFTISRDNSKNTLYLQMNSLRAEDTAVYYCARVFGYYDFWSGYPGAFDYWGQGTLVTVSS VL: DIQMTQSPSSLSASVGDRVTITCRASQGISSSLAWYQQKPGKVPKLLIYAASTLQSGVPSRFSGSGSGTDFTLTISSLQPEDFATYYCQQSYSTPWTFGQGTKVEIKR
RESULT: 1.64

QUERY: Now the binder M0138-E02 (Fab, V domains shown) VH: EVQLLESGGGLVQPGGSLRLSCAASGFTFSHYMMHWVRQAPGKGLEWVSGIGPSGGKTPYADSVKGRFTISRDNSKNTLYLQMNSLRAEDTAVYYCARVGVWYGMDVWGQGTTVTVSS VL: DIQMTQSPSSVSASVGDRVTITCRASQGISSWLVWYQQKPGKAPKLLIYAASSLQSGVPSRFSGSGSGTDFTLTISSLQPEDFATYYCQQAKTFPLTFGGGTKVEIKR
RESULT: 0.35

QUERY: Now the binder M0113-E03 (Fab, V domains shown) VH: EVQLLESGGGLVQPGGSLRLSCAASGFTFSRYTMFWVRQAPGKGLEWVSGIYPSGGKTIYADSVKGRFTISRDNSKNTLYLQMNSLRAEDTAVYYCATGGVFGVVDYWGQGTLVTVSS VL: DIQMTQSPSSLSASVGDRVTITCRASQSINSYLNWYQQKPGKAPNLLIYAASSLQNGVPSRFSGSGSGTDFTLTISSLQPEDFAAYYCQQSYSTPLTFGGGTKVEIKR
RESULT: 1.50

QUERY: Now the binder M0107-D05 (Fab, V domains shown) VH: EVQLLESGGGLVQPGGSLRLSCAASGFTFSNYHMQWVRQAPGKGLEWVSSIYPSGGFTRYADSVKGRFTISRDNSKNTLYLQMNSLRAEDTAVYYCARDGGQGGWGQGTLVTVSS VL: DIQMTQSPSTLSASVGDRVTITCRASQSISSWLAWYQQKPGKVPKLLIHAASTLQSGVPSRFSGSGSGTDFTLTISSLQPEDVATYYCQKYNSAPLTFGGGTKVEIKR
RESULT: 1.18

Value source: patent US7329737
